molecular target: T1, Human C3 (human, UniProt P01024 23-1663); assay: SPR, C3 immobilised
T1 construct: In SPR the bought human C3 was immobilised on CM5 chips by amine coupling; In the haemolysis assay the C3 is that of diluted human serum; also called complement C3
T1 sequence (P01024 23-1663 limits assumed): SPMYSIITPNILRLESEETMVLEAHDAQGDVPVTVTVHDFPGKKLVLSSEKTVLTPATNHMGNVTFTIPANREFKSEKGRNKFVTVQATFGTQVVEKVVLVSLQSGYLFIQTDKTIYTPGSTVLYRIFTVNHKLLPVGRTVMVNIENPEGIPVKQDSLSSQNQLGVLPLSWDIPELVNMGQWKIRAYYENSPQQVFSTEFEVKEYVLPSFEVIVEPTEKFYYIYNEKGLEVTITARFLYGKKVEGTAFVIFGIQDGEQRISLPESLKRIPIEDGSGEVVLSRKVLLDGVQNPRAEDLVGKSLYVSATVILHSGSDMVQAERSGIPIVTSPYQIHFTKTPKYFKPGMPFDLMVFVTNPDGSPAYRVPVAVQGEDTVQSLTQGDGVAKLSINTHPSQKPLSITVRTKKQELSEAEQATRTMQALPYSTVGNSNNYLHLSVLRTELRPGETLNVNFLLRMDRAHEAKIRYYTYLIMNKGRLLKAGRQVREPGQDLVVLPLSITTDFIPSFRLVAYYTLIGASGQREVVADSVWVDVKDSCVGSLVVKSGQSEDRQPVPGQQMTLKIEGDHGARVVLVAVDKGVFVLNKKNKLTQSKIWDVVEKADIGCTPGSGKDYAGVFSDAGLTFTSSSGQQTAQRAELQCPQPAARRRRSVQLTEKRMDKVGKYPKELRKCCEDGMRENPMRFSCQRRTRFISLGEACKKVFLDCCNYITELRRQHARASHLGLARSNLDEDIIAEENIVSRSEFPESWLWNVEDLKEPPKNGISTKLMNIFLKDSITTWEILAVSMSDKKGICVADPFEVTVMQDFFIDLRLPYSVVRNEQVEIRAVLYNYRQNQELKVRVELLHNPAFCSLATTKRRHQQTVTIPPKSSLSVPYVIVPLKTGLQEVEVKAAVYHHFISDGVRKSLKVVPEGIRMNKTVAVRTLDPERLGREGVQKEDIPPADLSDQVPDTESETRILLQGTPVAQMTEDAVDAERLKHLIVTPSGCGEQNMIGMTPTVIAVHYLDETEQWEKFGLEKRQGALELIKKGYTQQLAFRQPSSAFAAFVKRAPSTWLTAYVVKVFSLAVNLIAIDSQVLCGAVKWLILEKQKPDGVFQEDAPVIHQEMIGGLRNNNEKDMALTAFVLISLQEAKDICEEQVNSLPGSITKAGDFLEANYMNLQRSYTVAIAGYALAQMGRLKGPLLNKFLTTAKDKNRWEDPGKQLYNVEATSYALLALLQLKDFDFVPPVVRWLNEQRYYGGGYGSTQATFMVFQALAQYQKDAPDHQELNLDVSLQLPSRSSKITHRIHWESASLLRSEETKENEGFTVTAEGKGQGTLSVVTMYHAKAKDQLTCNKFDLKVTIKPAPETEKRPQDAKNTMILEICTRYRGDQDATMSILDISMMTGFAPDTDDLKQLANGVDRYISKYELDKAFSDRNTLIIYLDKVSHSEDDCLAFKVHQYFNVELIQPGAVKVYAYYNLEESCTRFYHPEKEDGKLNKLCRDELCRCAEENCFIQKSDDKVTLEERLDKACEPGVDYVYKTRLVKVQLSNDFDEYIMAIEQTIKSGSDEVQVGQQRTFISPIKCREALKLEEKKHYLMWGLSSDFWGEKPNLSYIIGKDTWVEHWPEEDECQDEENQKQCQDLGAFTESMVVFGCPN
Starred links: 1 amine or outer side, 2 acyl side, 3 side chain; linkers in the order of their positions; H or OH if unused. Positions of bridges follow the written chain, without caps; N, C: chain ends. Non-standard residues stand in square brackets, D forms with d. Groups on a side chain read outwards from the residue. *: point of attachment. Trp(1-Me) = Cn1cc(C[C@H](N)C(=O)O)c2ccccc21; C18 diacid = O=C(O)CCCCCCCCCCCCCCCCC(=O)*; C16 diacid = O=C(O)CCCCCCCCCCCCCCC(=O)*; γGlu = O=C(O)[C@H](CCC(=O)[*:2])N[*:1]; AEEA = NCCOCCOCC(=O)O; Sar = CNCC(=O)O
Measured Kd values are reported for all entries that follow.
Use nM as the unit, but write only the number.

These recorded examples may help you get a feel for the data.
SEFAIWQDWGEHRCGEGEXESK (not fully specified; N-acetyl; C-terminal amide; delta-cystathionine (Ctt2) thioether bridge A4-hCys14 (hCys written C); W6 is 1-Me-Trp; G10 is Sar; G15 is Sar; X19 is Peg3; K22 side chain bears [17-carboxy-heptadecanoyl][γGlu]G[γGlu]) [Compound 150] ... 0.56
Ac-SEFCI[Trp(1-Me)]QDWGEHRC[Sar]EGE[AEEA][AEEA]K([γGlu-Gly-γGlu-C16 diacid])-NH2 (disulfide 4-14) [Compound 127] ... 8.5
SEFAIWQEWGEHRCGEGEXXK (not fully specified; N-acetyl; C-terminal amide; delta-cystathionine (Ctt2) thioether bridge A4-hCys14 (hCys written C); W6 is 1-Me-Trp; G15 is Sar; X19 and X20 are Peg3; K21 side chain bears [17-carboxy-heptadecanoyl][γGlu]G[γGlu]) [Compound 153] ... 11.1

Quickly give me recorded Kd for Ac-SEFCI[Trp(1-Me)]QDWGEHRCTEGE[AEEA][AEEA]K([γGlu-Gly-γGlu-C18 diacid])-NH2 (disulfide 4-14) [Compound 126]
5.2
